Cited source: PubChem BioAssay (NCI)

- System: NCI/ADR-RES ovarian
- test_protocol: NCI tumour cell line growth inhibition, 48 h
For each of the compounds below, state its GI50.

**Q:** Give the reported GI50 for this compound. C=C1C(=O)O[C@H]2[C@H]1CC/C(COC(=O)NCc1ccc(OC)cc1)=C\CC[C@@]1(C)O[C@@H]21
**A:** 2.69 µM

**Q:** Give the reported GI50 for this compound. CSc1ncc(Br)c(Sc2nc(N)nc3nc[nH]c23)n1
**A:** 3.64 µM

**Q:** Give the reported GI50 for this compound. NS(=O)(=O)c1ccc(N2N=C3c4ccccc4CC3C2c2cccs2)cc1 (centres undefined)
**A:** 17.1 µM

**Q:** Give the reported GI50 for this compound. CN(C)c1ccc(/C=C2\N=C(c3ccccc3)N(c3cc(C(F)(F)F)ccc3Cl)C2=O)cc1
**A:** > 100 µM
